The reported measurements were obtained from ChEMBL document CHEMBL1201862.

Molecular target: Heat shock factor protein 1 (Mus musculus)
Sequence (P38532 whole entry): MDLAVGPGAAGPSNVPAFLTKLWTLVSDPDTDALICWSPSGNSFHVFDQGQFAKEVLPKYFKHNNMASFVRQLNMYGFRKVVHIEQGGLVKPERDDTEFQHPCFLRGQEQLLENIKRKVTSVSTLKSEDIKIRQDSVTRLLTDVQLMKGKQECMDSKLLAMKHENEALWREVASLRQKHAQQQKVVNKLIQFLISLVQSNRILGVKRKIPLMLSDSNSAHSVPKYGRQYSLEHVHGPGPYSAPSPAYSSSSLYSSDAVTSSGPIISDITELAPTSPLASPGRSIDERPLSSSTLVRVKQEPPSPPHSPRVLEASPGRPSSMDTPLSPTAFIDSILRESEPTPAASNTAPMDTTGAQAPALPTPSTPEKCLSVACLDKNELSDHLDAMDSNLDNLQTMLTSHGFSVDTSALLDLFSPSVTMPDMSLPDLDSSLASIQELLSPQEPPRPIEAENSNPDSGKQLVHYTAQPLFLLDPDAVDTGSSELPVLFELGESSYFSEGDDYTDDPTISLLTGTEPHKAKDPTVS
Assay: decrease of HSF1-responsive luciferase luminescence – cell-based, NIH3T3, dose retest, confirmation (AID 2382);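 further: NIH3T3 fibroblasts with HSF1-driven luciferase reporter stressed by proteasome inhibitor MG132; luminescence from HSF1-driven luciferase expression after 8 hours of MG132 stress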
Format: functional
Activity calls are given as the source filed them. No stated cut-off is given here; in the data, actives have a measured EC50 and inactives only a lower limit.
reported_metric: EC50

> print(dat)
                                   molecule     experimental.value
1  COC(=O)CCCC1=CC2=C(c3ccccc3)C(=O)C(C)(OC(=O)C3CCCC3)C(=O)C2=CN1c1ccc(OC)cc1 (stereo unspecified)  > 195 µM (not active)
2  COc1ccccc1N1CCN(C(c2ccc(N(C)C)cc2)c2nnnn2CCc2ccccc2)CC1 (stereo unspecified)  > 195 µM (not active)
3     COc1ccc(C/C(C)=N/NC(=S)Nc2ccccc2F)cc1       96.9 µM (active)
4  OC1/C(=C/c2ccccc2C(F)(F)F)N2CCC1CC2 (stereo unspecified)  > 195 µM (not active)
5  O=C(NC1CCCCC1)C(c1ccco1)N(C(=O)c1csnn1)c1ccc(Cl)cc1 (stereo unspecified)  > 195 µM (not active)

QUERY: Please supply the value of reported EC50 for the item CCc1ccccc1NC(=O)CCS(=O)(=O)c1ccc(OC)cc1
RESULT: > 195 µM (not active)

QUERY: Please supply the value of reported EC50 for the item Sc1nnc(-c2ccncc2)n1Cc1ccco1
RESULT: > 195 µM (not active)

QUERY: Please supply the value of reported EC50 for the item COc1cccc(-c2cccc(NC(=O)C3CCN(Cc4ccon4)CC3)c2)c1
RESULT: > 195 µM (not active)

QUERY: Please supply the value of reported EC50 for the item O=C(O)c1cccc(COc2ccc(CO)cc2Cl)c1
RESULT: 0.375 µM (active)

QUERY: Please supply the value of reported EC50 for the item COc1ccc(N2CCN(C(=O)c3cccc(Br)c3)CC2)c([N+](=O)[O-])c1
RESULT: > 195 µM (not active)

QUERY: Please supply the value of reported EC50 for the item COC(=O)[C@H](C)NC(=O)NCCC1=CCCCC1
RESULT: > 195 µM (not active)
